B1: TRIM39 (parent)
chain: ERDFPCPVCRKTSRYRSLRPNRQL

Variants of: B1
TEST_NAME: protein stability index of a GFP-peptide fusion (GPS, HEK-293T) (PSI 1-6); higher = more stable;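 further: lentivirally expressed fusions sorted by FACS into six bins by GFP to DsRed ratio, PSI derived from sequencing read proportions per bin multiplied by bin number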
ASSAY_SETUP: c terminus: a fixed tail appended
Label scheme for protein stability index: low end = under 2, middle = from 2 up to 3, high end = 3 and over

>  <MUTATION_SPEC>
S17T

>  <CLASS_ASSIGNMENT>
low end

$$$$
>  <MUTATION_SPEC>
P7Y

>  <CLASS_ASSIGNMENT>
middle

$$$$
>  <MUTATION_SPEC>
C9Y

>  <CLASS_ASSIGNMENT>
high end

$$$$
>  <MUTATION_SPEC>
T12H

>  <CLASS_ASSIGNMENT>
low end

$$$$
>  <MUTATION_SPEC>
R22K

>  <CLASS_ASSIGNMENT>
middle

$$$$
>  <MUTATION_SPEC>
Q23N

>  <CLASS_ASSIGNMENT>
middle

$$$$
>  <MUTATION_SPEC>
R10C

>  <CLASS_ASSIGNMENT>
high end

$$$$
>  <MUTATION_SPEC>
C6Q

>  <CLASS_ASSIGNMENT>
high end

$$$$
